ASSAY REMARKS: Human liver microsomal stability
Format: in vitro ADME
CONDITION: stability in pooled human (50 donors) liver microsomes 0.5 mg/ml, compound 1 μM, parent compound by LC/MS
Known HLM (30 min) of a selection of compounds
I only need the number, in %, no unit after it.

Fc1ccccc1Nc1ncnc2cc(OCCOC(F)F)c(OCCOC(F)F)cc12 ... 71.6
COc1cc2ncnc(Nc3ccc(F)c(Cl)c3F)c2cc1OCCOC(F)F ... 60.4
Fc1cccc(F)c1Nc1ncnc2cc(OCCOC(F)F)c(OCCOC(F)F)cc12 ... 77.6

## Task In one line, give reported HLM (30 min) of the entry Fc1c(Cl)cccc1Nc1ncnc2cc(OCCOC(F)F)c(OCCOC(F)F)cc12 .
## Result 76.4
